target_of_assay: LcPol theta-pol WT (Lates calcarifer, UniProt PDB:8EFK_1 1-864)
Sequence (chain, as listed by the source): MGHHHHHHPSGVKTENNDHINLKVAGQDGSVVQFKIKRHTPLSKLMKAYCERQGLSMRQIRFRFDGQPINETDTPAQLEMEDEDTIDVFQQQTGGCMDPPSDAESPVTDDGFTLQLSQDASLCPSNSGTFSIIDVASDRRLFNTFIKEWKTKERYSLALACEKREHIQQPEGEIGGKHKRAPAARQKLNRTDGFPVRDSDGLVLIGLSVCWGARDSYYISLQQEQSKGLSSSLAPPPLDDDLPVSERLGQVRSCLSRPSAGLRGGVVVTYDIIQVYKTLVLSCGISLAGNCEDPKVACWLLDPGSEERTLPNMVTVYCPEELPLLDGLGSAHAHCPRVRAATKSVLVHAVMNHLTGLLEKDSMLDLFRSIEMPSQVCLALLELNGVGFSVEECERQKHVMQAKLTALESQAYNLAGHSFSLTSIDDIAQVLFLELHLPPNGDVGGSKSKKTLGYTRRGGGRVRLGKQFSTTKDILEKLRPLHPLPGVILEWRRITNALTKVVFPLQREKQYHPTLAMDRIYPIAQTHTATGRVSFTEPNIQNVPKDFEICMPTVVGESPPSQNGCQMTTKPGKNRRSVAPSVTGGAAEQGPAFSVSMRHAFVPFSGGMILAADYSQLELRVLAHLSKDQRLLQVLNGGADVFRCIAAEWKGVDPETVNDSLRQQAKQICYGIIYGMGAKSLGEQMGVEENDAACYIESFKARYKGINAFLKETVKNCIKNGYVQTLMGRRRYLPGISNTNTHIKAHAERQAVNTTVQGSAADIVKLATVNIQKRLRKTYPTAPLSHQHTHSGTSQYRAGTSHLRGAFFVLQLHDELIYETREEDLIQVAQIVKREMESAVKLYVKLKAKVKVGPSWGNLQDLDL
assay_info: EMSA; 2.5 mM EDTA, no dNTP; EMSA: 10 nM HP [3,9], 25 mM HEPES pH 8.0, 100 mM KCl, 3 mM DTT, 100 ug/ml BSA, 10% glycerol, 2.5 mM EDTA, 0.01% NP40, on ice 20 min; 6% native PAGE, Tris-glycine; Hill fit
condition_summary: protein: recombinant; tags: His6-SUMO, removed by SENP2; label: 5' 6-FAM; hairpin, 3-bp stem, 9-nt dT loop, 5' overhang 8 nt
assay_metric: Kd (nM)

In [3]: df
Out[3]:
                                     binder  value_reported
0  TTTTTTTTGGCTTTTTTTTTGCC (structured_DNA) [HP [3,9]]              29
